Assay: Kinetic solubility of OLA in 1% (w/v) polymer solutions
Format: physicochemical
Conditions: 1% (w/v) Kollidon VA64 solution, thermodynamic from solid; amorphous OLA, 1% (w/v) Kollidon VA64, 37 °C, 1 h; read-out: kinetic solubility in Kollidon VA64 at 1 h

compound	measure_unit	solubility kinetic at 1 h
O=C(c1cc(Cc2n[nH]c(=O)c3ccccc23)ccc1F)N1CCN(C(=O)C2CC2)CC1 [Amorphous OLA, olaparib]	µg/mL	593

====

Test: Kinetic solubility of OLA in 1% (w/v) polymer solutions
Format: physicochemical
Conditions: 1% (w/v) Kollidon VA64 solution, thermodynamic from solid; amorphous OLA, 1% (w/v) Kollidon VA64, 37 °C, 72 h; read-out: kinetic solubility in Kollidon VA64 at 72 h
property_measured: solubility kinetic at 72 h (µg/mL)

sample_smiles	reading
O=C(c1cc(Cc2n[nH]c(=O)c3ccccc23)ccc1F)N1CCN(C(=O)C2CC2)CC1	343

====

Experiment: Kinetic solubility of OLA in 1% (w/v) polymer solutions
Format: physicochemical
Details: 1% (w/v) HPMC P645 solution, thermodynamic from solid; amorphous OLA, 1% (w/v) HPMC P645, 37 °C, 72 h; read-out: kinetic solubility in HPMC P645 at 72 h
property_measured: solubility kinetic at 72 h (µg/mL)

compound	property_measured	reading
O=C(c1cc(Cc2n[nH]c(=O)c3ccccc23)ccc1F)N1CCN(C(=O)C2CC2)CC1 [Amorphous OLA, olaparib]	solubility kinetic at 72 h	353

====

Experiment: In vivo pharmacokinetic study after oral administration
Design: species or system Sprague Dawley (SD) rats
Conditions: male, Sprague Dawley, rat, plasma, po, 20 mg/kg, rats, mean ± S.D. (n = 6)

sample_smiles	half-life (h)
O=C(c1cc(Cc2n[nH]c(=O)c3ccccc23)ccc1F)N1CCN(C(=O)C2CC2)CC1	4.18

====

Experiment: In vivo pharmacokinetic study after oral administration
Set-up: species or system Sprague Dawley (SD) rats
Details: male, Sprague Dawley, rat, plasma, po, 20 mg/kg, rats, mean ± S.D. (n = 6), read-out: MRT

sample_smiles	MRT
O=C(c1cc(Cc2n[nH]c(=O)c3ccccc23)ccc1F)N1CCN(C(=O)C2CC2)CC1	2.97 h

====

Assay: Kinetic solubility of OLA in 1% (w/v) polymer solutions
Format: physicochemical
Details: 1% (w/v) HP-β-CD solution, aqueous with cosolvent or surfactant or cyclodextrin, thermodynamic from solid; amorphous OLA, 1% (w/v) HP-β-CD, 37 °C, 1 h; read-out: kinetic solubility in HP-β-CD at 1 h

compound	solubility kinetic at 1 h
O=C(c1cc(Cc2n[nH]c(=O)c3ccccc23)ccc1F)N1CCN(C(=O)C2CC2)CC1 [Amorphous OLA, olaparib]	337 µg/mL

====

Experiment: Saturation solubility of OLA in aqueous solutions
Type: physicochemical
Settings: aqueous pH solutions, pH 1.2, pH 4.0, pH 6.8, regardless of pH, 37 °C

sample_smiles	solubility at 72 h
O=C(c1cc(Cc2n[nH]c(=O)c3ccccc23)ccc1F)N1CCN(C(=O)C2CC2)CC1	~100 µg/mL

====

Assay: In vivo pharmacokinetic study after oral administration
Design: species or system Sprague Dawley (SD) rats
Settings: male, Sprague Dawley, rat, plasma, po, 20 mg/kg, rats, mean ± S.D. (n = 6)

sample_smiles	k el / s⁻¹
O=C(c1cc(Cc2n[nH]c(=O)c3ccccc23)ccc1F)N1CCN(C(=O)C2CC2)CC1	5.28e-05

====

Experiment: In vivo pharmacokinetic study after oral administration
Parameters: species or system Sprague Dawley (SD) rats
Settings: male, Sprague Dawley, rat, plasma, po, 20 mg/kg, rats, mean ± S.D. (n = 6), read-out: AUC0–24
property_measured: AUC(0-t) (ng·h/mL)

sample_smiles	property_measured	measure_unit	reading
O=C(c1cc(Cc2n[nH]c(=O)c3ccccc23)ccc1F)N1CCN(C(=O)C2CC2)CC1	AUC(0-t)	ng·h/mL	370
